Sourced from patent US20260242395A1

// values below are reported pIC50
- test system: CDK4/CyclinD1 (Homo sapiens)
- protocol text: CDK4/CyclinD1 kinase inhibitory activity (Caliper mobility shift)
- protocol conditions: enzyme 20 nM, ATP 672 uM, 28° C. 30 min; read-out: CDK4/Cyclin D1 IC50
pIC50: −log10 of the molar value.
value kind: pIC50

In [3]: df
Out[3]:
                                    compound  value_kind   test_result
 0  Cc1nc2c(F)cc(-c3cc(N[C@@H]4CCOC[C@H]4O)ncc3F)cc2cc1C(C)(C)O       pIC50        > 8.00
 1  CC1(C)Cc2cnc3c(F)cc(-c4nc(N[C@@H]5COC[C@H]5O)ncc4Cl)cc3c2CN1       pIC50  7.00 to 8.00
 2  CC1(O)CCc2nc3c(F)cc(-c4nc(N[C@@H]5CCOC[C@H]5O)ncc4Cl)cc3cc21 (single isomer, unassigned) [Example 38a]       pIC50        > 8.00
 3  CC(C)(O)c1cnc2c(F)cc(-c3nc(N[C@@H]4CCOC[C@H]4O)ncc3Cl)cc2c1       pIC50        > 8.00
 4  CNC(C)c1cnc2c(F)cc(-c3nc(N[C@@H]4CCOC[C@H]4O)ncc3Cl)cc2c1 (single isomer, unassigned) [Example 32b]       pIC50  7.00 to 8.00
 5  [2H]c1nc(N[C@@H]2CCOC[C@H]2O)nc(-c2cc(F)c3nc(C)c(C(C)O)c(C)c3c2)c1F (single isomer, unassigned) [Example 84a]       pIC50        > 8.00
 6  [2H]c1nc(N[C@@H]2CCOC[C@H]2O)nc(-c2cc(F)c3nc([2H])c4c(c3c2)CNC2(CC2)C4)c1Cl       pIC50        > 8.00
 7  Cc1cc(C(C)(C)O)c2cc(-c3nc(N[C@@H]4CCOC[C@H]4O)ncc3Cl)ccc2n1       pIC50  6.00 to 7.00
 8  Cc1cc(C(C)(C)O)c2cc(-c3nc(N[C@@H]4CCOC[C@H]4O)ncc3F)cc(F)c2n1       pIC50  7.00 to 8.00
 9  Cc1c(C(C)NC2CC2)cnc2c(F)cc(-c3nc(N[C@@H]4CCOC[C@H]4O)ncc3Cl)cc12 (single isomer, unassigned) [Example 91b]       pIC50        > 8.00
10  O[C@@H]1COCC[C@H]1Nc1ncc(Cl)c(-c2cc(F)c3ncc4c(c3c2)CNC2(CC2)C4)n1       pIC50        > 8.00
11  [2H]c1nc(N[C@@H]2CCOC[C@H]2O)nc(-c2cc(F)c3nc([2H])c(C(C)(C)O)c(C)c3c2)c1F       pIC50        > 8.00
12  Cc1nc2c(F)cc(-c3nc(N[C@@H]4CCOC[C@H]4O)ncc3F)cc2c2c1CC(C)(C)NC2       pIC50        > 8.00
13  Cc1nc2c(F)cc(-c3nc(N[C@@H]4CCOC[C@H]4O)ncc3Cl)cc2cc1C(C)NC1CC1 (single isomer, unassigned) [Example 73a]       pIC50  7.00 to 8.00

* * *

- test system: CDK4/CyclinD1 (Homo sapiens, UniProt P11802)
- Sequence (P11802 whole entry): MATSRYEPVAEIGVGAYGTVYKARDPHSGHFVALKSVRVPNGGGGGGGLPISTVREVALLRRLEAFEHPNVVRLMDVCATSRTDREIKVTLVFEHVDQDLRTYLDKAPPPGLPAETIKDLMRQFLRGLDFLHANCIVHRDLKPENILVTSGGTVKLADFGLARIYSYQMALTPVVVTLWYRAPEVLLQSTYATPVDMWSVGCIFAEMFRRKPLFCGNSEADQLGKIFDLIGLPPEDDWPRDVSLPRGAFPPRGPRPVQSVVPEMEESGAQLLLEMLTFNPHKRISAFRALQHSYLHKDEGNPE
- Sequence (P24385 whole entry partner): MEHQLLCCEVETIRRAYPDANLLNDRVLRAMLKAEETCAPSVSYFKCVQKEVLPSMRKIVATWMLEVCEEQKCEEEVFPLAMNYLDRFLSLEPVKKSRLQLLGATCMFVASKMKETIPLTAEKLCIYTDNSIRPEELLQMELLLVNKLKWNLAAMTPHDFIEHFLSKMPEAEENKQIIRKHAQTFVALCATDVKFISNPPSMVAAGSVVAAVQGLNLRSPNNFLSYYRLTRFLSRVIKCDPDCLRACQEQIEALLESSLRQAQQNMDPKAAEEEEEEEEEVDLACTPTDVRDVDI
- protocol text: CDK4/CyclinD1 kinase inhibitory activity (Caliper mobility shift)
- protocol conditions: enzyme 20 nM, ATP 672 uM, 28° C. 30 min; read-out: CDK4/Cyclin D1 IC50
Recorded IC50 for the following compounds
value kind: IC50

                                   compound                               test_system   test_result
0  CC(C)(O)c1cnc2c(F)cc(-c3cc(N[C@@H]4CCOC[C@H]4O)ncc3Cl)cc2c1Cl [Example 42]  CDK4/CyclinD1 (Homo sapiens, UniProt P11802)       < 10 nM
1  O[C@@H]1COCC[C@H]1Nc1ncc(Cl)c(-c2cc(F)c3ncc(-c4ncc[nH]4)cc3c2)n1 [Example 28]  CDK4/CyclinD1 (Homo sapiens, UniProt P11802)  10 to 100 nM
2  CCC(O)c1cc2cc(-c3nc(N[C@@H]4CCOC[C@H]4O)ncc3Cl)cc(F)c2nc1C (single isomer, unassigned) [Example 39b]  CDK4/CyclinD1 (Homo sapiens, UniProt P11802)       < 10 nM
3  Cc1cnc(N[C@@H]2CCOC[C@H]2O)nc1-c1cc(F)c2nc(C)c3c(c2c1)CNC(C)(C)C3 [Example 104]  CDK4/CyclinD1 (Homo sapiens, UniProt P11802)  10 to 100 nM
4  [2H]c1nc(N[C@@H]2CCOC[C@H]2O)nc(-c2cc(F)c3nc(C)c(C(C)NC4CC4)cc3c2)c1F (single isomer, unassigned) [Example 77a]  CDK4/CyclinD1 (Homo sapiens, UniProt P11802)       < 10 nM
5  CC1(C)Cc2cnc3c(F)cc(-c4nc(N[C@@H]5CCOC[C@H]5O)ncc4C#N)cc3c2CN1 [Example 49]  CDK4/CyclinD1 (Homo sapiens, UniProt P11802)       < 10 nM
6  CC(C)(O)C1COc2c(F)cc(-c3nc(N[C@@H]4CCOC[C@H]4O)ncc3Cl)cc2C1 (stereo partly shown) [Example 46]  CDK4/CyclinD1 (Homo sapiens, UniProt P11802)       < 10 nM
